- system.name: T1, RBFOX1 RRM (Homo sapiens, UniProt Q9NWB1 109-208)
- T1 sequence: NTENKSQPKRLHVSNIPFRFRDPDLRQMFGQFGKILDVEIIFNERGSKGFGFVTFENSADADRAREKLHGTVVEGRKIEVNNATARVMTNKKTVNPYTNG
- method.description: EMSA; HiTS-Eq, 1 nM pool, 10 min; buffer printed only for the single-RNA assays: 10 mM Tris pH 7.5, 150 mM NaCl, 3.4 mM EDTA, 0.001% NP-40, 30 C
- reported.conditions: tags: His6 N-terminal (pET28a); label: 5' 32P
In all, about 16,000 sequences were measured (“ka relative to ugcaugu”: median about 0.0091, highest 2% from about 0.032 on). Shown is part of a subset that was picked to be rich in the highest values.
Here, each record is paired with measured binding signal data.
property: binding signal

GCAUAAU (DNA:RNA) RNA: GGGAGACCGGAAUUCAGAUUGUCCGCAUAAUUUAAAUCCCGUCGUAGCCACCA DNA 1: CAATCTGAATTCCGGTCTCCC DNA 2: TGGTGGCTACGACGGGATT ... 0.00163 KA relative to UGCAUGU
UUCAGGC (DNA:RNA) RNA: GGGAGACCGGAAUUCAGAUUGUCCUUCAGGCUUAAAUCCCGUCGUAGCCACCA DNA 1: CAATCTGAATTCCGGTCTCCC DNA 2: TGGTGGCTACGACGGGATT ... 0.0127 KA relative to UGCAUGU
GAUAUAC (DNA:RNA) RNA: GGGAGACCGGAAUUCAGAUUGUCCGAUAUACUUAAAUCCCGUCGUAGCCACCA DNA 1: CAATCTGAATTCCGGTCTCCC DNA 2: TGGTGGCTACGACGGGATT ... 0.00528 KA relative to UGCAUGU
UUGAAUG (DNA:RNA) RNA: GGGAGACCGGAAUUCAGAUUGUCCUUGAAUGUUAAAUCCCGUCGUAGCCACCA DNA 1: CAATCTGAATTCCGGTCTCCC DNA 2: TGGTGGCTACGACGGGATT ... 0.037 KA relative to UGCAUGU
ACCACAA (DNA:RNA) RNA: GGGAGACCGGAAUUCAGAUUGUCCACCACAAUUAAAUCCCGUCGUAGCCACCA DNA 1: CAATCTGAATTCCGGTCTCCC DNA 2: TGGTGGCTACGACGGGATT ... 0.00102 KA relative to UGCAUGU
